- MEASURED ON: katalytische Domäne der MMP-8 (Homo sapiens, UniProt P22894)
- Construct: dass wir statt des Gesamtenzyms nur dessen enzymatisch aktive katalytische Domäne in E. coli klonierten; made in house; host or cells: E. coli
- Sequence (P22894 100-262 limits assumed): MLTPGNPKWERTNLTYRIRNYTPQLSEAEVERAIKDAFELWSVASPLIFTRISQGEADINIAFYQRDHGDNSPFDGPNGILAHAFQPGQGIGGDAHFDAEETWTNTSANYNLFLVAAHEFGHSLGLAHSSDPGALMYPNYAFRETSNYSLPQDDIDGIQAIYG
- PROCEDURE DETAILS: Quantitative fluorescence assay for matrix metalloproteinases (cleavage of Mca-Pro-Leu-Gly-Leu-Dpa-Ala-Arg-NH2)
- Type: biochemical
- EXPERIMENTAL CONDITIONS: bei 10 µM
READOUT NAME: MMP-8 Hemmung (% Hemmung bei 10 µM)
Supply the numeric figure in % Hemmung bei 10 µM, leaving out any unit text.

Example compounds with recorded MMP-8 Hemmung:
In [3]: df
Out[3]:
                                   compound          unit_abbrev  recorded_result
0  Cc1cccc2c(=O)n(CC(S)CS)c(=O)[nH]c12 (racemic) [Beispiel 6]  % Hemmung bei 10 µM               43
1  Cc1cccc2[nH]c(=O)n(CC(S)CS)c(=O)c12 (racemic) [Beispiel 5]  % Hemmung bei 10 µM               70
2  O=c1[nH]c2ccc(Cl)cc2c(=O)n1CC(S)CS (racemic) [Beispiel 4]  % Hemmung bei 10 µM               60
3  O=c1[nH]c2cc(Cl)ccc2c(=O)n1CC(S)CS (racemic) [Beispiel 3]  % Hemmung bei 10 µM               87
4  O=c1[nH]c2ccccc2c(=O)n1CC(S)CS (racemic) [Beispiel 1]  % Hemmung bei 10 µM               70

Briefly, MMP-8 Hemmung measured for O=c1[nH]c2sc3c(c2c(=O)n1CC(S)CS)CCCC3 (racemic) [Beispiel 10] : 39
